TARGET_UNDER_TEST: Peroxisome proliferator-activated receptor alpha (Homo sapiens, UniProt Q07869)
Sequence (Q07869 whole entry, the tested form may be a part): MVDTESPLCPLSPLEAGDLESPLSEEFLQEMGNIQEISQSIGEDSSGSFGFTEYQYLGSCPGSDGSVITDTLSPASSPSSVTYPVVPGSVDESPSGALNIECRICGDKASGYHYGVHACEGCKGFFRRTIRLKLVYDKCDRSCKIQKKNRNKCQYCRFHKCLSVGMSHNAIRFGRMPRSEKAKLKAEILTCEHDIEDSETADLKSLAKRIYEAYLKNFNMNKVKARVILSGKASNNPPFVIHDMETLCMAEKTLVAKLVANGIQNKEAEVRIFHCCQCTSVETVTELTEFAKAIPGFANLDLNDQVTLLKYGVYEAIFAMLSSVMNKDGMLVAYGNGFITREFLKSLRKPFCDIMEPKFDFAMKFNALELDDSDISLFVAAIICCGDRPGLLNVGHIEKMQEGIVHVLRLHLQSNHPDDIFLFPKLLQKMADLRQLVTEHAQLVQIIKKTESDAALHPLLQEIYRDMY
METHOD_NOTES: Agonist activity at GAL4-fused human PPAR-alpha transfected in African green monkey COS7 cells assessed transcriptional activation incubated for 16 hrs by Luciferase assay
Documented EC50 across a set of molecules
REPORTED_PROPERTY: EC50 (nM)

>>> df
                           molecular_string  quantity_unit  qualifying_sign  readout_number
0  Cc1cc(CN2CCN(c3ccc(OC(F)(F)F)cc3)C2=O)cc(C)c1OC(C)(C)C(=O)O             nM                =             4.7
1  Cc1ccc(N2CCN(Cc3cc(C)c(OC(C)(C)C(=O)O)c(C)c3)C2=O)cc1             nM                =            40.4
2  Cc1cc(CN2CCN(c3ccccc3C(F)(F)F)C2=O)cc(C)c1OC(C)(C)C(=O)O             nM                >            5000
3  Cc1cc(CN2CCN(c3ccc(F)cc3)C2=O)cc(C)c1OC(C)(C)C(=O)O             nM                =            89.5
4  Cc1cc(CN2CCN(c3cccc(C(F)(F)F)c3)C2=O)cc(C)c1OC(C)(C)C(=O)O             nM                =            14.2
5  Cc1cc(CN2CCN(c3ccc(C(F)(F)F)cc3)C2=O)ccc1OC(C)(C)C(=O)O             nM                =             175
6  COc1ccc(N2CCN(Cc3cc(C)c(OC(C)(C)C(=O)O)c(C)c3)C2=O)cc1             nM                =             121
7  CSc1ccc(C(=O)/C=C/c2cc(C)c(OC(C)(C)C(=O)O)c(C)c2)cc1             nM                =             888
8  Cc1cc(Cn2ncn(-c3ccc(OC(F)(F)F)cc3)c2=O)cc(C)c1OC(C)(C)C(=O)O             nM                =             8.5
